B1: ZNF449 (parent)
chain: CTHCSKSFRQRAGLIMHQVTHFRG

# Variants of: B1
# PROCEDURE_SUMMARY: protein stability index of a GFP-peptide fusion (GPS, HEK-293T) (PSI 1-6); higher = more stable;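 further: lentivirally expressed fusions sorted by FACS into six bins by GFP to DsRed ratio, PSI derived from sequencing read proportions per bin multiplied by bin number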
# CONDITION: c terminus: a fixed tail appended
OBSERVATION_TYPE: protein stability index
Could you keep your reply to the number by itself?

Guide cases for protein stability index, answers given:
mutation_code=V19I test_value=2.91
mutation_code=L14F test_value=2.54
mutation_code=S5Y test_value=2.75

## Input Indicate the recorded protein stability index value for this variant: T20L
## Output 1.43

## Input Please indicate protein stability index recorded for M16T
## Output 2.78

## Input Give the value of protein stability index reported for the following: S5A
## Output 1.98

## Input Report measured protein stability index; entry is L14K
## Output 2.05

## Input Provide one value: measured protein stability index of G13M
## Output 2.12
